These data points were gathered from the supplement of paper PMC10567573.

Catalogue of protein stability index readings, one per entry.
B1: ACSBG2 (parent)
chain: TPMTIPEFFRESVNRFGTYPALAS

Variants of: B1
Protocol text: protein stability index of a GFP-peptide fusion (GPS, HEK-293T) (PSI 1-6); higher = more stable;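 note: lentivirally expressed fusions sorted by FACS into six bins by GFP to DsRed ratio, PSI derived from sequencing read proportions per bin multiplied by bin number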
Setup conditions: c terminus: a fixed tail appended
Endpoint label: protein stability index

Mutations | Measured
E7N | 2.63
T1W | 2
F16R | 2.86
P20I | 2.34
V13T | 2.98
A23I | 2.37
I5V | 2.03
N14S | 2.51
Y19E | 3.37
P6Y | 1.99
V13D | 2.79
P20Y | 1.56
M3Q | 3.21
R10F | 2.04
S24N | 2.64
P20L | 2.63
E7D | 2.13
M3F | 2.14
L22A | 2.51
R15F | 2.25
R10K | 2.55
E11V | 1.99
